- System: A549 NSCLC
- METHOD: NCI tumour cell line growth inhibition, 48 h
QUANTITY KIND: TGI

Here is how some compounds turned out for TGI.
{"COMPOUND": "CCSC1=N/C(=C/c2ccccc2O)C(=O)N1", "TGI": "> 100 µM"}
{"COMPOUND": "COC(=O)C1(C2CC/C(C)=C/CC/C(C)=C/CC[C@@]3(C)O[C@@H]3C2)CC1 (some centres undefined)", "TGI": "> 80.3 µM"}
{"COMPOUND": "CCC1(N=[N+]=[N-])C(=O)c2ccccc2N(c2ccccc2)C1=O (centres undefined)", "TGI": "> 100 µM"}

As a next step, examine the compound that follows.
What value of TGI on A549 NSCLC does Cc1ccc2c(c1)O/C(=C\c1ccc([N+](=O)[O-])o1)C2=O have? 8.53 µM

Measured values drawn from PubChem BioAssay (NCI) for this set.
